Data origin, for the record: patent US20230339949A1

target: D2L receptor (Homo sapiens, UniProt P14416)
Construct: expressed in transfected cells
Sequence (P14416 whole entry): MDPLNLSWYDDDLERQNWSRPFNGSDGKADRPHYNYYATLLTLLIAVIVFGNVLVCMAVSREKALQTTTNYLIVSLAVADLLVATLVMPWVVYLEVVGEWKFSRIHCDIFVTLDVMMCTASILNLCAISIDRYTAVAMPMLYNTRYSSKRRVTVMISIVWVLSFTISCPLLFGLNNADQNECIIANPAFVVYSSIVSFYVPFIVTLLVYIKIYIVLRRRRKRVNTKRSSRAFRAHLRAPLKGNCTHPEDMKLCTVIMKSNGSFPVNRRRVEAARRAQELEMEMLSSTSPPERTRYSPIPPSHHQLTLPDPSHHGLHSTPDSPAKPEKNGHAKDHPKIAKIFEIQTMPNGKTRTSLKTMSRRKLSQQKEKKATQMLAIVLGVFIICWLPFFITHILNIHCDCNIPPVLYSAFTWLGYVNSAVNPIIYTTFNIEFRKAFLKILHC
assay name: Functional activity test on D2L receptor, cAMP detection (Gi antagonist test)
Assay type: cell-based
measurement conditions: cryopreserved CHO-K1/D2L/Gα15 cells, forskolin + dopamine EC90
Hi! Could you tag entries with IC50 below 40 nM as Yes, and those at or above as No? Much appreciated.

**Query** Is it true that IC50 reported for "CN1C(=O)CN2c3c1cccc3[C@@]1(C)CN(CCCC(=O)c3ccc(F)cc3)CC[C@@H]21" is less than 40 nM?
**Result** Yes

**Query** Repeat for the following compound: Cn1c(=O)c(=O)n2c3c(cccc31)C1(C)CN(CCCC(=O)c3ccc(F)cc3)CCC21 (centres unmarked)
**Result** Yes

**Query** Next up: CN1C(=O)CN2c3c(cccc31)[C@@H]1CN(CCCC(=O)c3ccc(F)cc3)CC[C@@H]12 [Comparative embodiment 1-A, reference compound]
**Result** No

**Query** Request: CN1CCN2c3c(cccc31)[C@@H]1CN(CCCC(=O)c3ccc(F)cc3)CC[C@@H]12 [ITI-007, Lumateperone, reference compound]
**Result** No

**Query** Same thing, different compound: CN1CCN2c3c(cccc31)C1CN(CCCC(=O)c3ccc(F)cc3)CCC12 (centres unmarked) [Comparative embodiment 2, reference compound]
**Result** Yes

**Query** // same read-out, input: "CN1C(=O)CN2c3c1cccc3[C@]1(C)CN(CCCC(=O)c3ccc(F)cc3)CC[C@H]21"
**Result** Yes

**Query** Continue with CN1C(=O)CN2c3c1cccc3C1(C)CN(CCCC(=O)c3ccc(F)cc3)CCC21 (centres unmarked)
**Result** Yes

**Query** Try CCN1C(=O)CN2c3c1cccc3C1(C)CN(CCCC(=O)c3ccc(F)cc3)CCC21 (centres unmarked) next.
**Result** No
